Attribute: Percent Effect
# System: Mycobacterium tuberculosis
# MEASUREMENT_DESCRIPTION: Cornell M. t heat shock assay; further: in the data most compounds retested in dose-response had high values
# Type: functional, organism-based
# Design: dose or concentration left out as unconfirmed
In all, about 69,000 compounds went through this assay and about 950 (1.4%) showed an effect of 50% or more. What follows is part of a selection rich in strong results, with near analogues and random picks from the rest.
Respond numerically; units are % and should not be typed.

Reference set (5 entries):
Could you share which Percent Effect value was measured for CC(C(N)=O)n1nc(-c2cccs2)cc(N)c1=O (configuration not stated) ? 10.66

Could you share which Percent Effect value was measured for COc1ccc2nc(C)c(C(=O)NCCN3CCS(=O)(=O)CC3)cc2c1 ? 0.03382

Could you share which Percent Effect value was measured for O=C(C1CCCCO1)N1CCc2ncnc(NCc3ccon3)c2CC1 (configuration not stated) ? 17.45

Could you share which Percent Effect value was measured for CCN1CCN(CCCNC(=O)c2cc3ccc(C)cc3nc2C)CC1 ? -11.33

Could you share which Percent Effect value was measured for Cc1ccc(CNC(c2cccc(F)c2)c2nccn2C)o1.Cl (configuration not stated) ? 79.6

Further cases:
Could you share which Percent Effect value was measured for O=C(O)C(F)(F)F.O=C(c1cccnc1)N1CCC2(CCN(C(=O)c3ccco3)CC2)C1 ? 23.94

Could you share which Percent Effect value was measured for COCCN1CCOCC12CCN(C(=O)c1ccoc1)CC2.O=C(O)C(F)(F)F ? -24.79

Could you share which Percent Effect value was measured for Cc1ccc(CNCCC(O)(c2nccn2C)C(F)(F)F)o1 (configuration not stated) ? -16.27

Could you share which Percent Effect value was measured for O=C(O)C(F)(F)F.O=C1NCCN(CC2CC2)C12CCN(Cc1ccccc1)CC2 ? -29.41

Could you share which Percent Effect value was measured for Cc1nc(-n2nc(-c3cccs3)cc2N)[nH]c(=O)c1C ? 103.7

Could you share which Percent Effect value was measured for COc1c(CNC(c2cccc(F)c2)c2nccn2C)c(C)nn1C (configuration not stated) ? -20.66

Could you share which Percent Effect value was measured for O=C(c1ccco1)N1CCc2ncnc(NCc3ccccn3)c2CC1 ? 44.89

* * *

Attribute: Percent Effect
# System: Mycobacterium tuberculosis
# MEASUREMENT_DESCRIPTION: Cornell M. t heat shock assay; further: in the data most compounds retested in dose-response had high values
# Format: functional, organism-based
# Design: dose or concentration left out as unconfirmed
Hit rate of the full screen: of about 69,000 compounds, about 950 (1.4%) showed an effect of 50% or more. This excerpt belongs to a sample that is enriched for strong results.
Respond numerically; units are % and should not be typed.

Could you share which Percent Effect value was measured for CCN1c2ccc(-c3cncn3CC(=O)NC(C)(C)C)cc2CC1C.Cl (stereo not given) ? 85.85

Could you share which Percent Effect value was measured for COc1ccc(-c2cc3nn(CC(N)=O)c(=O)n3c(C)n2)cc1 ? 28.25

Could you share which Percent Effect value was measured for COc1cccc(COCC(O)CN(C)c2ccc(C)cc2C)c1 (stereo not given) ? -34.76

Could you share which Percent Effect value was measured for CCN1CCOCC12CCN(C(=O)C1CCCC1)CC2.O=C(O)C(F)(F)F ? -1.07

Could you share which Percent Effect value was measured for CCCn1cc(-c2ccnc(NC3CCCc4ccccc43)n2)c(C)n1 (stereo not given) ? 98

Now for the compound whose Percent Effect we want.
Could you share which Percent Effect value was measured for Cc1noc(C(C)Nc2ccc(N3CCOCC3)cc2C)n1 (stereo not given) ? 41.84

* * *

Attribute: Percent Effect
# Test system: Mycobacterium tuberculosis
# MEASUREMENT_DESCRIPTION: Cornell M. t heat shock assay; further: in the data most compounds retested in dose-response had high values
# Type: functional, organism-based
# Design: dose or concentration left out as unconfirmed
Screen size: about 69,000 compounds; about 950 (1.4%) showed an effect of 50% or more. The list comes from a sample in which strong results are over-represented; it also holds close analogues and randomly drawn compounds.
Respond numerically; units are % and should not be typed.

Reference set (5 entries):
Could you share which Percent Effect value was measured for Cc1cc(NCc2ccc(O)cc2)n2nc(C)cc2n1 ? 21.53

Could you share which Percent Effect value was measured for Cc1cc(NCc2cccnc2)n2nc(C)cc2n1 ? 1.456

Could you share which Percent Effect value was measured for CNC(=O)COC1COC2(CCN(Cc3cccnc3)CC2)C1.O=C(O)C(F)(F)F (stereo not given) ? 22.59

Could you share which Percent Effect value was measured for Cc1cc(NCc2ccc(C#N)cc2)n2nc(C)cc2n1 ? -9.847

Could you share which Percent Effect value was measured for O=C1CCCC2=C1C(c1ccccc1Cl)Nc1nonc1N2 (stereo not given) ? 3.129

Further cases:
Could you share which Percent Effect value was measured for Cl.O=C(CCC1CCCC1)N1CCCC(c2ncc3c(n2)CCNC3)C1 (stereo not given) ? -5.492

Could you share which Percent Effect value was measured for CNC(=O)CCCNc1cc(C)nc2cc(C)nn12 ? -5.305

Could you share which Percent Effect value was measured for O=C(NCc1ccco1)c1cc(N2CC[C@@H](O)C2)ccn1 ? 1.104

Could you share which Percent Effect value was measured for Cc1cc(NCc2cc(C)oc2C(F)(F)F)n2nc(C)cc2n1 ? 56.47

Could you share which Percent Effect value was measured for CCCOC1CCCN(c2ccnc(C(=O)NCc3ccco3)c2)C1 (stereo not given) ? 56.57

Could you share which Percent Effect value was measured for COCCN1CCc2ncnc(NC(C)C)c2CC1.O=C(O)C(F)(F)F ? -1.499

Could you share which Percent Effect value was measured for COc1ccnc(CN2CCCC(CCc3ccc(F)cc3)C2)c1OC (stereo not given) ? 80.3

* * *

Attribute: Percent Effect
# System: Mycobacterium tuberculosis
# MEASUREMENT_DESCRIPTION: Cornell M. t heat shock assay; further: in the data most compounds retested in dose-response had high values
# Type: functional, organism-based
# Set-up: dose or concentration left out as unconfirmed
In all, about 69,000 compounds went through this assay and about 950 (1.4%) showed an effect of 50% or more. The sample as a whole holds a higher share of strong results than the screen did.
A bare number is not enough; add the unit after it.

Could you share which Percent Effect value was measured for CNC(=O)c1ccc2c(c1)C1(CCN(CCOC)CC1)C(=O)N2.O=C(O)C(F)(F)F ? -17.93%

Could you share which Percent Effect value was measured for COc1ccc(Cl)cc1CS(=O)(=O)Cc1noc(C)n1 ? -24.6%

Could you share which Percent Effect value was measured for CC(=O)N1C[C@@H]2CC[C@H](C1)N(S(=O)(=O)c1ccccc1Cl)C2 ? -21.33%

Could you share which Percent Effect value was measured for O=C(O)C(F)(F)F.O=C1[C@H]2CN(Cc3nccs3)C[C@H]2CN1c1ccsc1 ? 28.97%

Further cases:
Could you share which Percent Effect value was measured for COc1ccc(Cl)cc1CS(=O)(=O)Cc1nc(C2CC2)no1 ? 45.18%

Could you share which Percent Effect value was measured for Cc1ncc2c(n1)CN(CCCc1ccccc1)CC2 ? 3.621%

Could you share which Percent Effect value was measured for Cn1c2c(ccc1=O)CCN(Cc1ccoc1)CC2.O=C(O)C(F)(F)F ? -16.65%

Could you share which Percent Effect value was measured for CCN(CCNS(=O)(=O)C1CCOCC1)C(=O)OC(C)(C)C ? -7.011%

Could you share which Percent Effect value was measured for CCn1nc(C)c(NC(=O)c2cc(NC(=O)C3CC3)n(C)n2)c1C ? -24.03%

* * *

Attribute: Percent Effect
# Tested on: Mycobacterium tuberculosis
# MEASUREMENT_DESCRIPTION: Cornell M. t heat shock assay; further: in the data most compounds retested in dose-response had high values
# Assay type: functional, organism-based
# Design: dose or concentration left out as unconfirmed
Screen size: about 69,000 compounds; about 950 (1.4%) showed an effect of 50% or more. For the sample, strong results were picked, then their nearest neighbours and some compounds at random.
Respond numerically; units are % and should not be typed.

Reference set (5 entries):
I'm curious: which Percent Effect was measured for c1ccc(CO[C@@H]2CN(Cc3ccoc3)[C@@H]3COC[C@@H]32)nc1 tested on Mycobacterium tuberculosis? 52.89

I'm curious: which Percent Effect was measured for CN1CC(=O)N(c2ccccc2)CC12CCN(CC1CCOCC1)C2.O=C(O)C(F)(F)F.O=C(O)C(F)(F)F (centres undefined) tested on Mycobacterium tuberculosis? 3.802

I'm curious: which Percent Effect was measured for Cc1cc(N(C)CCN(C)C)n2nc(C)cc2n1 tested on Mycobacterium tuberculosis? -8.3

I'm curious: which Percent Effect was measured for Cn1ccnc1-c1nc(N2CCCCC2)ncc1-c1ccccc1F tested on Mycobacterium tuberculosis? -0.09407

I'm curious: which Percent Effect was measured for OCC1N(Cc2ccc(F)cc2)[C@H]2CC[C@]1(O)CC2 (some centres undefined) tested on Mycobacterium tuberculosis? 36.63

Further cases:
I'm curious: which Percent Effect was measured for Cc1nn(C)cc1-c1cncn1CCc1ccc2c(c1)OCCO2.Cl tested on Mycobacterium tuberculosis? -2.438

I'm curious: which Percent Effect was measured for Cl.O=C(CCc1cccc(C2CCNCC2)n1)N1CCCCC1 tested on Mycobacterium tuberculosis? -1.304

I'm curious: which Percent Effect was measured for Fc1ccc(CN2C[C@@H](OCc3ccccn3)[C@H]3COC[C@H]32)cc1.O=C(O)C(F)(F)F.O=C(O)C(F)(F)F tested on Mycobacterium tuberculosis? 25.12

I'm curious: which Percent Effect was measured for Cc1cccnc1CN1CCOC(Cc2cccc3ccccc23)C1 (centres undefined) tested on Mycobacterium tuberculosis? 106.2
